Tested on: SK-MEL-28 melanoma
Procedure details: NCI tumour cell line growth inhibition, 48 h
Quick reference for TGI among some compounds

Compound: CC1(C)N=C(C(N)=O)c2ncn(CCCO)c2N1
TGI: > 100 µM
//
Compound: CCOC(=O)c1c(-c2ccc(OC)cc2)c(C#N)c(=S)n(C2OC(COC(C)=O)C(OC(C)=O)C(OC(C)=O)C2OC(C)=O)c1C (stereo not given)
TGI: > 100 µM
//
Compound: CC(C)(C)NC(=O)/C(=C\Sc1ccccc1)c1ccc2c(c1)OCO2
TGI: > 100 µM
//
Compound: COc1cc(C2SCC(=O)N2c2ccc(NC(=O)c3ccc(N4C(=O)CSC4c4cc(OC)c(OC)c(OC)c4)cc3)cc2)cc(OC)c1OC (stereo not given)
TGI: > 100 µM

Lab note: next compound to report on.
I looked up CCCn1c(CN(Cc2nc3ccccc3n2CCC)Cc2nc3ccccc3n2CCC)nc2ccccc21 and its TGI for SK-MEL-28 melanoma was 38.1 µM

---

# TGI values compiled below
Test system: SF-295 CNS
Procedure details: NCI tumour cell line growth inhibition, 48 h
Quick note: give the figure in µM, leave out the unit.

Compound: COc1ccc2cc(-c3ccc(-c4ccc(C(=N)N)s4)s3)ccc2c1
Target or test system: SF-295 CNS
Recorded measurement: 17.6

Now consider a different compound.
// field: TGI; key: COc1ccc(C(OCC2OC(n3cc(C)c(=O)[nH]c3=O)CC2n2cc(Cn3cc(F)c(=O)[nH]c3=O)nn2)(c2ccccc2)c2ccccc2)cc1 (stereo not given) ; value = 19.4

---

System: TK-10 renal
Procedure details: NCI tumour cell line growth inhibition, 48 h
Assay readout: TGI (µM)
Numbers only; they are read as µM.

Consider the following illustrative entries.
Compound: COc1ccc(C(OCC2OC(n3cc(C)c(=O)[nH]c3=O)CC2n2cc(Cn3cc(F)c(=O)[nH]c3=O)nn2)(c2ccccc2)c2ccccc2)cc1 (centres undefined)
Target or test system: TK-10 renal
TGI [µM]: 33.9
--
Compound: CCCCCCCCCCCC[n+]1ccccc1 (tested in a mixture with another compound)
Target or test system: TK-10 renal
TGI [µM]: 1.86

Briefly, TGI measured for C=CCO/N=C/c1cc(NC(=S)c2ccoc2C)ccc1Cl : 42.2

---

Tested on: ACHN renal
Procedure details: NCI tumour cell line growth inhibition, 48 h
Assay readout: TGI (µM)
Only the number, expressed in µM, is required.

compound Cc1ccccc1Nc1nc2c(s1)C(=O)c1ccccc1C2=O , TGI observed: 14.6

Summary for this compound, Cn1cc(-c2csc(-c3cn(C)c4ccccc34)n2)c2cnccc21 : TGI is 3.19

Consider CCCNC(=O)CCC(C)[C@H]1CCC2C3C(C[C@H](OC(C)=O)[C@@]21C)[C@@]1(C)CCC2(C[C@H]1C[C@H]3OC(C)=O)OOC1(CCC(C)CC1)OO2 (some centres not stated) . Its measured TGI is 4.08

Item: O=C1/C(=C\c2cccc(Oc3ccccc3)c2)S(=O)(=O)C(c2ccccc2)N1Cc1ccccc1 (configuration not stated) | TGI: 49.4

---

# Lookup of reported TGI keyed by entry
System: HOP-92 NSCLC
Procedure details: NCI tumour cell line growth inhibition, 48 h

Molecule: O=C1C2=C(c3ccccc31)C(c1ccccc1Cl)N1C(=O)CCSC1=N2 (centres undefined)
Target or test system: HOP-92 NSCLC
TGI: > 100 µM
--
Molecule: COc1ccc(/C=C2/CCc3cc4ccc(OC)cc4[o+]c32)c(O)c1
Target or test system: HOP-92 NSCLC
TGI: 29.1 µM
--
Molecule: COc1ccc(C#CC(=O)O)c(OC)c1
Target or test system: HOP-92 NSCLC
TGI: > 100 µM
--
Molecule: Cc1ccccc1C(O)(c1nccn1C)c1nccn1C
Target or test system: HOP-92 NSCLC
TGI: > 100 µM
--
Molecule: CC1(c2ccccc2)CC(c2ccccc2)=NO1 (centres undefined)
Target or test system: HOP-92 NSCLC
TGI: > 100 µM
--
Molecule: Cn1c(/C(C#N)=C/c2ccc3ccccc3c2)cc2ccccc21
Target or test system: HOP-92 NSCLC
TGI: > 100 µM
--
Molecule: CCOC1Oc2ccccc2-c2oc(=O)c(Sc3ccc(C)cc3)cc21 (centres undefined)
Target or test system: HOP-92 NSCLC
TGI: 48.4 µM
--
Molecule: CC1(C)N=C(C(N)=O)c2ncn(CCCO)c2N1
Target or test system: HOP-92 NSCLC
TGI: > 100 µM
--
Molecule: CCSc1nc(N)c2cn[nH]c2n1
Target or test system: HOP-92 NSCLC
TGI: 93.3 µM
--
Molecule: C=C[C@@H]1C(CO)=CCC2[C@H]1CCC1C(C)(C)C(=O)CC[C@]21C (some centres undefined)
Target or test system: HOP-92 NSCLC
TGI: > 100 µM

// CC/C(=N\NS(=O)(=O)c1ccccc1)c1ccccc1 : TGI value = > 100 µM

TGI recorded for this molecule, C=CCOC(=O)CC[N+]1=CCC(c2ccccc2)(c2ccccc2)O1 , is > 100 µM

Lab note: measured TGI of O=C(/C=C/c1ccccc1)CC(c1ccccc1)N1CCOCC1 (centres undefined) was 18.3 µM

Value of measured TGI for the entry Cc1ccc2nc3c(Cl)c(C)c(=O)cc-3sc2c1 : > 100 µM
